This collection of values is drawn from PubChem BioAssay AID328.

Test system: BDF1 mice, P388 leukemia ip, median survival T/C
procedure-text: NCI In Vivo Anticancer Drug Screen. Data for tumor model P388 Leukemia (intraperitoneal) in B6D2F1 (BDF1) mice
condition-label: endpoint: median survival time; dose: 100.0 mg/kg/injection; schedule: Q01DX009 (ip); vehicle: saline; higher = longer survival
Inconclusive results and toxic doses are left out.
We begin with a simple list: items and their reported T/C.

[[record]]
molecule = "NC(=O)NN=C1COC(c2ccccc2)OC1 (stereo unspecified)"
recorded_measurement = "110 % of control"

[[record]]
molecule = "Fc1ccc(C(Cl)Cl)cc1"
recorded_measurement = "104 % of control"

[[record]]
molecule = "CCOC(=O)C(=NN(C)C)C(=O)OCC"
recorded_measurement = "92 % of control"

[[record]]
molecule = "C[Si](C)(C)OC/C=C\\CO[Si](C)(C)C"
recorded_measurement = "100 % of control"

[[record]]
molecule = "CCN(CC)CCOc1cc(C)ccc1C"
recorded_measurement = "89 % of control"

[[record]]
molecule = "NC(=O)CNCCS(=O)(=O)O"
recorded_measurement = "91 % of control"


Please state recorded T/C (tested on BDF1 mice, P388 leukemia ip, median survival T/C) of CC1C(=O)CC(=O)C1=O (stereo unspecified)
104 % of control

// map CCN1CC=CCC1 to recorded T/C (system: BDF1 mice, P388 leukemia ip, median survival T/C)
116 % of control

Requested read-out T/C, target or system BDF1 mice, P388 leukemia ip, median survival T/C, entry CN(S(=O)(=O)CC(F)(F)F)S(=O)(=O)C(F)(F)F
100 % of control

Missing value: T/C, BDF1 mice, P388 leukemia ip, median survival T/C, entry O=C(O)C1CCC[N-]C1.O=C(O)C1CCC[N-]C1.O=C(O)C1CCC[N-]C1.O=C(O)C1CCC[N-]C1.[Cl][Rh][Cl] (stereo unspecified) . Fill in?
86 % of control

Missing value: T/C, BDF1 mice, P388 leukemia ip, median survival T/C, entry NC(=O)CC1=NCCc2ccccc21 . Fill in?
91 % of control

* * *

Test system: BDF1 mice, P388 leukemia ip, median survival T/C
procedure-text: NCI In Vivo Anticancer Drug Screen. Data for tumor model P388 Leukemia (intraperitoneal) in B6D2F1 (BDF1) mice
condition-label: endpoint: median survival time; dose: 400.0 mg/kg/injection; schedule: Q04DX003 (ip); vehicle: other; higher = longer survival
Toxic doses and inconclusive results are not listed.
property-label: T/C

[[record]]
smiles_str = "CCCCN(C)/N=N/c1[nH]ncc1C(=O)OCC"
target_entity = "BDF1 mice, P388 leukemia ip, median survival T/C"
property_label = "T/C"
recorded_measurement = "100 % of control"

[[record]]
smiles_str = "NOCc1ccsn1"
target_entity = "BDF1 mice, P388 leukemia ip, median survival T/C"
property_label = "T/C"
recorded_measurement = "90 % of control"

[[record]]
smiles_str = "O=[N+]([O-])c1cccc(OCCCOc2ccccc2)c1"
target_entity = "BDF1 mice, P388 leukemia ip, median survival T/C"
property_label = "T/C"
recorded_measurement = "100 % of control"

[[record]]
smiles_str = "c1ccc2c(c1)Cn1c-2nc2ccccc21"
target_entity = "BDF1 mice, P388 leukemia ip, median survival T/C"
property_label = "T/C"
recorded_measurement = "113 % of control"

[[record]]
smiles_str = "Oc1ccc(OCc2ccccc2)cc1"
target_entity = "BDF1 mice, P388 leukemia ip, median survival T/C"
property_label = "T/C"
recorded_measurement = "100 % of control"

[[record]]
smiles_str = "CCCCCSc1nc(N)nc2nc[nH]c12"
target_entity = "BDF1 mice, P388 leukemia ip, median survival T/C"
property_label = "T/C"
recorded_measurement = "94 % of control"


Next, consider the following compound.
What measured T/C is associated with CC1(c2cccc([N+](=O)[O-])c2)OCCO1 on BDF1 mice, P388 leukemia ip, median survival T/C?
91 % of control

* * *

T/C values for the molecules below.
System: BDF1 mice, P388 leukemia ip, median survival T/C
procedure-text: NCI In Vivo Anticancer Drug Screen. Data for tumor model P388 Leukemia (intraperitoneal) in B6D2F1 (BDF1) mice
condition-label: endpoint: median survival time; dose: 100.0 mg/kg/injection; schedule: Q01DX005 (ip); vehicle: saline with Tween-80; higher = longer survival
Toxic doses and inconclusive results are not listed.

Examples with their reported T/C follow.
[[record]]
molecule = "O=C1CN(CCc2ccccc2)CC(=O)N2C(c3ccccc3)CCCN12 (stereo unspecified)"
target_entity = "BDF1 mice, P388 leukemia ip, median survival T/C"
property_label = "T/C"
recorded_measurement = "97 % of control"

[[record]]
molecule = "CC12CCC(C=C1N1CCCCC1)C(C)(C)O2 (stereo unspecified)"
target_entity = "BDF1 mice, P388 leukemia ip, median survival T/C"
property_label = "T/C"
recorded_measurement = "101 % of control"

[[record]]
molecule = "CS(=O)(=O)c1ncc(Br)cn1"
target_entity = "BDF1 mice, P388 leukemia ip, median survival T/C"
property_label = "T/C"
recorded_measurement = "109 % of control"

[[record]]
molecule = "CC(=O)OC(=O)C(Cc1ccccc1)NC(=O)C(N)CCCN=C(N)N (stereo unspecified)"
target_entity = "BDF1 mice, P388 leukemia ip, median survival T/C"
property_label = "T/C"
recorded_measurement = "103 % of control"

[[record]]
molecule = "CC(C)(C)c1ccc(/C(N)=N/O)cc1"
target_entity = "BDF1 mice, P388 leukemia ip, median survival T/C"
property_label = "T/C"
recorded_measurement = "101 % of control"


Attention now shifts to the item below.
Dear colleague, I am looking for the recorded T/C of the following molecule: CN(C)CCNc1cc(O)c2c(c1O)C(=O)c1ccccc1C2=O
103 % of control

* * *

Item-by-item account of T/C
System: BDF1 mice, P388 leukemia ip, median survival T/C
procedure-text: NCI In Vivo Anticancer Drug Screen. Data for tumor model P388 Leukemia (intraperitoneal) in B6D2F1 (BDF1) mice
condition-label: endpoint: median survival time; dose: 100.0 mg/kg/injection; schedule: Q01DX009 (ip); vehicle: Klucel (hydroxypropylcellulose) (HPC); higher = longer survival
Toxic doses and inconclusive results are not listed.

[[record]]
molecule = "COC(=O)/C=C/c1ccc(Cl)cc1"
target_entity = "BDF1 mice, P388 leukemia ip, median survival T/C"
property_label = "T/C"
recorded_measurement = "95 % of control"

[[record]]
molecule = "O=C(CCl)N1CCc2ccccc21"
target_entity = "BDF1 mice, P388 leukemia ip, median survival T/C"
property_label = "T/C"
recorded_measurement = "86 % of control"


We next turn to a different molecule, shown below.
Please look up its T/C: COC(=O)C1C(O)C(C)C(=O)C(C)/C=C\C=C(C)C(=O)Nc2c(C)c(OC(C)=O)c3c(c2O)C(=O)C(C)=C2OCOC(=C23)C(C)=CC(C)(O)C(O)C(C)C1O (configuration not stated)
101 % of control

* * *

Test system: BDF1 mice, P388 leukemia ip, median survival T/C
procedure-text: NCI In Vivo Anticancer Drug Screen. Data for tumor model P388 Leukemia (intraperitoneal) in B6D2F1 (BDF1) mice
condition-label: endpoint: median survival time; dose: 200.0 mg/kg/injection; schedule: Q04DX003 (ip); vehicle: other; higher = longer survival
Inconclusive results and toxic doses are left out.
property-label: T/C

[[record]]
molecule = "CCOC(=O)C(C(C)=O)C(=O)OCC"
property_label = "T/C"
recorded_measurement = "92 % of control"

[[record]]
molecule = "NOCc1ccsn1"
property_label = "T/C"
recorded_measurement = "95 % of control"

[[record]]
molecule = "CCCCCSc1nc(N)nc2nc[nH]c12"
property_label = "T/C"
recorded_measurement = "100 % of control"

[[record]]
molecule = "O=C1/C(=C/c2ccco2)CCC2CC3(CCC12)OCCO3 (stereo not drawn)"
property_label = "T/C"
recorded_measurement = "91 % of control"

[[record]]
molecule = "C[C@@H]1C[C@@H]([C@H](O)CC2CC(=O)NC(=O)C2)C(=O)[C@@H](C)C1"
property_label = "T/C"
recorded_measurement = "97 % of control"


Query (molecule): CCCC(C(O)c1ccc(OC)cc1)C(O)(C(F)(F)F)C(F)(F)F (stereo not drawn) ; field requested: T/C
105 % of control

Which T/C value is on record for COc1ccc(/C=C2\CCC3C(CCCC34OCCO4)C2=O)cc1 (stereo not drawn) ?
108 % of control

Fill blank: measured T/C of the molecule c1ccc2c(c1)Cn1c-2nc2ccccc21 is ____.
109 % of control

* * *

Tested on: BDF1 mice, P388 leukemia ip, median survival T/C
procedure-text: NCI In Vivo Anticancer Drug Screen. Data for tumor model P388 Leukemia (intraperitoneal) in B6D2F1 (BDF1) mice
condition-label: endpoint: median survival time; dose: 100.0 mg/kg/injection; schedule: Q01DX001 (ip); vehicle: Klucel (hydroxypropylcellulose) (HPC); higher = longer survival
Toxic doses and inconclusive results are not listed.
compounds and their reported T/C

[[record]]
compound = "Cc1c(CO)[nH]c(=S)[nH]c1=O"
recorded_measurement = "90 % of control"

[[record]]
compound = "CCCCCCCCCCOc1ccc(C=O)c(OC)c1"
recorded_measurement = "100 % of control"

[[record]]
compound = "NC(=O)N/N=C1/CCCC(C(=O)O)C1 (configuration not stated)"
recorded_measurement = "116 % of control"


Request the reported T/C associated with O=C(c1ccccc1)C1(Br)CCCCC1
100 % of control

Quick check: T/C of Cc1nc(N)c([N+](=O)[O-])cc1[N+](=O)[O-] ?
87 % of control

Param item = Cc1nc(N)[nH]c(=O)c1CCCNc1cccc(C(F)(F)F)c1 ; retrieve measured T/C.
100 % of control

Requested field: T/C. Item: Cc1ccccc1C(c1ccccc1C)c1ccccc1C(=O)O
113 % of control
